- target: rat Opioid Receptor, Non-selective Sodium (Na+) Binding, Oprm1 (gene 25601)
- method_notes: NVS_GPCR_rOpiate_NonSelectiveNa: NovaScreen (NVS) G Protein-Coupled Receptor Assay for rat Opioid Receptor, Non-selective Sodium (Na+) Binding (AID 2283311)
Results filed as inconclusive are left out. Active and inactive are the calls of the source. The calls were made as follows: active = hit-call score of the fitted dose curve at least 0.9, where 1 is the maximum; inconclusive = response in the unintended direction; inactive = score below 0.9.
Possible outcomes: 1 for active, -1 for inactive

1. CC(C)(c1cc(Br)c(O)c(Br)c1)c1cc(Br)c(O)c(Br)c1 = -1
2. COc1cccc([C@H](O)C2CCN(CCc3ccc(F)cc3)CC2)c1OC = 1
3. Cc1occc1C(=O)Nc1ccc(C(=O)N2CCC(F)(F)/C(=C\C(=O)N3CCC(N4CCCCC4)CC3)c3ccccc32)cc1 = 1
4. CCCCOC(=O)c1ccc(O)cc1 = 1
5. O=c1c(-c2ccc(O)cc2)coc2cc(O)cc(O)c12 = -1
6. Cc1cc(F)ccc1-c1cc(N2CC[C@@H](O)[C@H]2CO)ncc1N(C)C(=O)C(C)(C)c1cc(C(F)(F)F)cc(C(F)(F)F)c1 = -1
7. NCc1cccc(C2CCN(C(=O)c3ccc(C#Cc4ccccc4F)o3)CC2)c1 = 1
8. CC(O)CC(C)(C)O (stereo not drawn) = -1

* * *

- Read-out: growth arrest and DNA damage 45 (GADD45A), GADD45A (gene 1647)
- method_notes: LTEA_HepaRG_GADD45A: Life Technologies and Expression Analysis (LTEA) Assay for growth arrest and DNA damage 45 (GADD45A) using HepaRG (AID 2283458)
- experimental_setup: mRNA level, 48 h; actives raise or lower the signal
The source made the active and inactive calls. How the source made its calls: active means hit-call score of the fitted dose curve at least 0.9, where 1 is the maximum; inactive means score below 0.9.
Possible outcomes: True (active), False (inactive)

1) Cc1c2ccccc2c(C)c2c1ccc1ccccc12 = True
2) NCc1cccc(C2CCN(C(=O)c3ccc(C#Cc4ccccc4F)o3)CC2)c1 = True
3) CCN(Cc1cccnc1)C(=O)c1cccc(Cl)c1[C@]1(C)C(=O)N(Cc2ccc(OC)cc2OC)c2ccc(Cl)cc21 = True
4) CCCCCCCCCCCO = False
5) O=c1ccc2ccccc2o1 = False
6) CCCCOC(=O)c1ccc(O)cc1 = False
7) O=CCCCC=O = False
8) Cc1cc2c(cc1C(F)(F)F)N(C(=O)Nc1ccc(Oc3cccnc3C)nc1)CC2 = True
9) CCCCOC(=O)CC(CC(=O)OCCCC)(OC(C)=O)C(=O)OCCCC = False
10) CC(C)(C)c1cc(/C=C2\SC(N)=NC2=O)cc(C(C)(C)C)c1O = False
11) C[C@]12CC[C@@H]3c4ccc(O)cc4CC[C@H]3[C@@H]1CC[C@H]2O = False
12) CC[C@H](NC(=O)c1cc(F)ccc1NS(=O)(=O)c1cccc2cccnc12)c1ccccc1 = False

* * *

- method_notes: BSK_3C_SRB: Viability Assessment in the BioMAP Diversity Plus: 3C Assay (AID 2283023);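 also: cells read 24 h after compound dosing; fitted both ways against DMSO so a hit may be signal rise or drop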
- experimental_setup: primary human endothelial cells (HUVEC)
Calls of active or inactive are those of the source. How the source made its calls: active means hit-call score of the fitted dose curve at least 0.9, where 1 is the maximum; inactive means score below 0.9.
Possible outcomes: true for active, false for inactive

1) O=C(O)c1ccccc1C(=O)OCc1ccccc1 = false
2) Cc1ccc2oc(CN(Cc3ccccc3)C(=O)Nc3c(F)cc(F)cc3F)c(-c3ccc(Cl)cc3)c2c1 = false
3) Cc1ccc(C(C)C)cc1 = false
4) CCCCCCCC[Si](OCC)(OCC)OCC = true
5) O=C(O)Cc1cc(I)c(Oc2ccc(O)c(I)c2)c(I)c1 = false
6) O=c1[nH]sc2ccccc12 = true
7) Clc1ccccc1C(c1ccccc1)(c1ccccc1)n1ccnc1 = true
8) CCO[Si](CCCNC(N)=O)(OCC)OCC = false
9) CN1C(=O)N(c2ccccc2Br)Cc2cnc(Nc3ccc4c(c3)OCC(CO)O4)nc21 (stereo not drawn) = true
10) CCCOC(=O)c1cc(O)c(O)c(O)c1 = false
11) CCN(CC)C(=O)c1cc(S(=O)(=O)Cc2ccccc2)c(N2CCC(c3ccccc3)CC2)cc1N(CC)CCN(C)C = true
12) CCCC(=O)OCCC(C)C = false
13) Clc1cc(Cl)c2c(c1)N=C1CCCCCN1C2 = false

These entries and their values trace back to PubChem BioAssay (EPA / NIEHS).
